Biological target: T1, TNFR1 (Homo sapiens, UniProt P19438)
T1 chain: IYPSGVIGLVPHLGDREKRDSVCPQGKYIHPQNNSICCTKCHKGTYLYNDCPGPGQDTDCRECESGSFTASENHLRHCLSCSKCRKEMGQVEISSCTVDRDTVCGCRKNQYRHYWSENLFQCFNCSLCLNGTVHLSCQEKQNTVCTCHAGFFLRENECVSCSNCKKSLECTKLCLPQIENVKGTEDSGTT
Test: yeast display SC50
observable: apparent Kd (screen) (nM)
Give bare numbers, in nM.

Some binders with recorded apparent Kd (screen):
Request: What measured apparent Kd (screen) goes with R13E (designed binder) MTLQELLREEALERAEAEAFRYALELLAEKFPEQKEYLLDLAEEIESQIRSLSGVDVEDVRKFLDKEWAWVKELLAEHPAELAEVEAARAARLAELRAEVEAKVAA ?
Response: 0.405

Request: Also check I45C (designed binder) MTLQELLREEALRRAEAEAFRYALELLAEKFPEQKEYLLDLAEECESQIRSLSGVDVEDVRKFLDKEWAWVKELLAEHPAELAEVEAARAARLAELRAEVEAKVAA
Response: 2.48

// each listed binder needs a value for apparent Kd (screen)
1. L93M (designed binder) MTLQELLREEALRRAEAEAFRYALELLAEKFPEQKEYLLDLAEEIESQIRSLSGVDVEDVRKFLDKEWAWVKELLAEHPAELAEVEAARAARMAELRAEVEAKVAA
2. E81N (designed binder) MTLQELLREEALRRAEAEAFRYALELLAEKFPEQKEYLLDLAEEIESQIRSLSGVDVEDVRKFLDKEWAWVKELLAEHPANLAEVEAARAARLAELRAEVEAKVAA

Response:
0.539
0.539
